targetUnderTest: UniProt P19327
Sequence (P19327 1-422): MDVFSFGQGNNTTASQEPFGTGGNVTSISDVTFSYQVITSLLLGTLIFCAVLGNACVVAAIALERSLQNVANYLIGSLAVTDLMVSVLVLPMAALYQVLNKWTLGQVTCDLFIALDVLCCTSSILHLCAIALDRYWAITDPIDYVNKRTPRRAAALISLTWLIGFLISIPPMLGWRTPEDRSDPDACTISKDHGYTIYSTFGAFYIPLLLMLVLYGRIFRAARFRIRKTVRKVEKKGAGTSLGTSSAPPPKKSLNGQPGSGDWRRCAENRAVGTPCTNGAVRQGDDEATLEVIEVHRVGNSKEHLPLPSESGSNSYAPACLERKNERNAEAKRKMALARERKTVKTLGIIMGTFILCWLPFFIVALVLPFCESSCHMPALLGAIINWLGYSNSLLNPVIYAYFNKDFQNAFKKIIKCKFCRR
valueKind: Ki (nM)
Just the number in nM, nothing appended.

Answered examples (2):
Under UniProt P19327: Ki value of NC(=O)c1ccccc1OCCCN1CCN(c2cccc3c2ccn3S(=O)(=O)c2ccccc2)CC1 [Compound 72] ? 3.9

Field entry: O=C1CCc2ccc(OCCCN3CCN(c4cccc5c4ccn5S(=O)(=O)c4ccccc4)CC3)cc2N1 [Compound 23] 6.2

Now let's try a different one.
Param readout = Ki; param system = UniProt P19327; param query = O=C1CCc2ccc(OCCCCN3CCN(c4cccc5c4ccn5Cc4cccc(Cl)c4)CC3)cc2N1 [Compound 67] ; response: value 7

###

targetUnderTest: 5-HT2A receptor, human recombinant (Homo sapiens, UniProt P28223)
methodDescription: Binding assay, 5-HT2A receptor ([3H]ketanserin)
valueKind: pKi
Entry type: numeric. Quantity: pKi, the -log10 of concentration in molar units.

Any idea what pKi was measured for O=C1CCc2ccc(OCCCCN3CCN(c4cccc5c4ccn5Cc4cccc(Cl)c4)CC3)cc2N1 ? 8.62

###

targetUnderTest: α1 adrenergic receptors (rat cerebral cortex)
methodDescription: Binding assay, α1 adrenergic receptor ([3H]prazosin)
details: read-out: Inhibition constant Ki α1
The entries below come with measured pKi values attached.
The scale used: pKi is minus the common logarithm of the concentration in molar units.

Consider the molecule shown here: O=C1CCc2ccc(OCCCCN3CCN(c4cccc5c4ccn5S(=O)(=O)c4ccccc4)CC3)cc2N1 [Compound 24] What is its recorded pKi? 7.66

Lab note: next molecule to report on.
Query (molecule): O=C1CCc2ccc(OCCCN3CCN(c4cccc5c4ccn5S(=O)(=O)c4ccccc4)CC3)cc2N1 [Compound 23] ; field requested: pKi 6.54

###

targetUnderTest: D2S (h), human recombinant (HEK-293 cells) (Homo sapiens)
Construct: expressed in transfected cells; host or cells: HEK-293 cells
Sequence (P14416 1-414 isoform P14416-2): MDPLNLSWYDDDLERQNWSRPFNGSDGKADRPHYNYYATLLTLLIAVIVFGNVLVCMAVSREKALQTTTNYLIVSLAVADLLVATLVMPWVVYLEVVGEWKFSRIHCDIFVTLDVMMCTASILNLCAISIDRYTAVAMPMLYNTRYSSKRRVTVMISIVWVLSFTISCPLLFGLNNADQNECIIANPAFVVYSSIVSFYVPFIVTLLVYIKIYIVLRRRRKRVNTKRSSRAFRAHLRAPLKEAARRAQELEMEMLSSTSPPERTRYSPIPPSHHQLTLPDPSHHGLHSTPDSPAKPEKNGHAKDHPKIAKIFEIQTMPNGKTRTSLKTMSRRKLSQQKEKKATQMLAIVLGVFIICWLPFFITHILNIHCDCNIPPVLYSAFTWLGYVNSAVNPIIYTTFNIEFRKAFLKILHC
methodDescription: Cellular functional assay D2S (h) agonism
Format: cell-based
details: HEK293; compound 1×10^−6 M; control 3 μM dopamine; read-out: D2-ag [%]
Protocol: The results are expressed as a percent of control specific agonist response ((measured specific response/control specific agonist response)×100) obtained in the presence of tested compound. […] For the antagonists, the apparent dissociation constants (Kb) were calculated using the modified Cheng Prusoff equation (Kb=IC50/(1+(A/EC50A)), where A=concentration of reference agonist in the assay, and EC50A=EC50 value of the reference agonist).
Listing of entries alongside the reported activation at 1 µM.
Write the number in % without appending the unit.

For the molecule shown here, O=C1CCc2ccc(OCCCCN3CCN(c4cccc5c4ccn5S(=O)(=O)c4ccccc4)CC3)cc2N1 [Compound 24] , give the reported activation at 1 µM. 47

Input O=C1CCc2ccc(OCCCCN3CCN(c4cccc5c4ccn5Cc4cccc(F)c4)CC3)cc2N1 [Compound 63] 47

Next molecule up: O=C1CCc2ccc(OCCCN3CCN(c4cccc5c4ccn5S(=O)(=O)c4ccccc4)CC3)cc2N1 [Compound 23] 40

Try the molecule O=C1CCc2ccc(OCCCN3CCN(c4cccc5c4ccn5Cc4ccccc4)CC3)cc2N1 [Compound 4] 45

Note, next up: O=S(=O)(c1ccccc1)n1ccc2c(N3CCN(CCCOc4ccccc4)CC3)cccc21 [Compound 12] 11

Continue with the molecule presented below.
Endpoint output: activation at 1 µM of O=S(=O)(c1ccccc1)n1ccc2c(N3CCN(CCCOc4ccc(F)cc4)CC3)cccc21 [Compound 15] . Value? 11
